Below, IC50 values reported for Carbonic anhydrase 1 (Homo sapiens) across several publications.

# molecule, IC50, µM
records = [
    ("Cc1ccc(-c2c(C#N)c(N)nc3c2CCCCC3)o1", 53),
    ("NS(=O)(=O)c1ccc(NC=C2C(=O)CC(c3ccco3)CC2=O)cc1 (stereo not drawn)", 8.61),
    ("Cc1cccc(CN2CN(Cc3cc(=O)oc4c(O)c(O)ccc34)c3ccccc32)c1", 22.1),
    ("Cc1ccc(NC(=O)Nc2ccc3c(c2)S(=O)(=O)NC3=O)cc1", 30.8),
    ("COc1ccc(C(O)C2CCCC2c2ccc(OC)c(OC)c2)cc1OC (stereo not drawn)", 0.514),
    ("CC/C(=C(/CC)c1ccc(O)cc1)c1ccc(O)cc1", 94),
    ("O=C1NS(=O)(=O)c2cc(NC(=S)Nc3ccccc3F)ccc21", 74.9),
    ("COc1ccc(C2=NN(C(C)=O)C3(c4ccc(OC)c(OC)c4)CCCC23)cc1OC (stereo not drawn)", 0.564),
]
